Target: HDM2 (Homo sapiens)
Construct: Thioredoxin (N); made in house; host or cells: E. coli strain BL21(DE3)Rosetta
Sequence (Q00987 17-125): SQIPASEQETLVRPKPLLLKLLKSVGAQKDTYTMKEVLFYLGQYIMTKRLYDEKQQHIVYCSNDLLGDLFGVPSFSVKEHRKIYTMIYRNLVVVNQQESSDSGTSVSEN
Assay: FRET assay (HDM2 inhibition; method not described in this part)
Format: binding
Details: Table 4
IC50 strictly less than 0.06 µM = Met. Otherwise Not met.

Query string: Does this compound meet the criterion IC50 < 0.06 µM? `CNC(=O)CCOc1ccc(C)cc1-c1nc2nc(C(=O)O)nc(N[C@H](C)C3CC3)c2n1Cc1ccc(Cl)cc1`
Result string: Not met

Query string: Does this compound meet the criterion IC50 < 0.06 µM? `C=CCCOc1ccc(C)cc1-c1nc2nc(C(=O)O)nc(N[C@H](C)C3CC3)c2n1Cc1ccc(Cl)cc1`
Result string: Not met

Query string: Does this compound meet the criterion IC50 < 0.06 µM? `COCCCOc1ccc(C)cc1-c1nc2nc(C(=O)O)nc(N[C@H](C)C3CC3)c2n1Cc1ccc(Cl)cc1`
Result string: Not met

Query string: Does this compound meet the criterion IC50 < 0.06 µM? `COCCOc1ccc(C)cc1-c1nc2nc(C(=O)O)nc(N[C@H](C)C3CC3)c2n1Cc1ccc(Cl)cc1`
Result string: Met

Query string: Does this compound meet the criterion IC50 < 0.06 µM? `COCCCOc1ccc(C)cc1-c1nc2nc(C(=O)O)nc(N[C@H](C)C3CCC3)c2n1Cc1ccc(Cl)cc1`
Result string: Met

Query string: Does this compound meet the criterion IC50 < 0.06 µM? `Cc1ccc(OCCO)c(-c2nc3nc(C(=O)O)nc(N[C@H](C)C4CC4)c3n2Cc2ccc(Cl)cc2)c1`
Result string: Not met

Query string: Does this compound meet the criterion IC50 < 0.06 µM? `Cc1ccc(OCCCO)c(-c2nc3nc(C(=O)O)nc(N[C@H](C)C4CCC4)c3n2Cc2ccc(Cl)cc2)c1`
Result string: Met

Query string: Does this compound meet the criterion IC50 < 0.06 µM? `Cc1ccc(OCCCO)c(-c2nc3nc(C(=O)O)nc(N[C@H](C)C4CC4)c3n2Cc2ccc(C#N)cc2)c1`
Result string: Not met

Query string: Does this compound meet the criterion IC50 < 0.06 µM? `Cc1ccc(O)c(-c2nc3nc(C(=O)O)nc(N[C@H](C)C4CC4)c3n2Cc2ccc(Cl)cc2)c1`
Result string: Not met

Query string: Does this compound meet the criterion IC50 < 0.06 µM? Cc1ccc(OCC(O)CO)c(-c2nc3nc(C(=O)O)nc(N[C@H](C)C4CC4)c3n2Cc2ccc(Cl)cc2)c1 (some centres unmarked)
Result string: Not met

Query string: Does this compound meet the criterion IC50 < 0.06 µM? `COCCOc1ccc(C)cc1-c1nc2nc(C(=O)O)nc(N[C@H](C)C3CCC3)c2n1Cc1ccc(Cl)cc1`
Result string: Met

Query string: Does this compound meet the criterion IC50 < 0.06 µM? `Cc1ccc(C)c(-c2nc3nc(C(=O)O)nc(N[C@H](C)C4CCC4)c3n2Cc2ccc(Cl)cc2)c1`
Result string: Met

Query string: Does this compound meet the criterion IC50 < 0.06 µM? `Cc1ccc(OCCCN2CCN(C)CC2)c(-c2nc3nc(C(=O)O)nc(N[C@H](C)C4CC4)c3n2Cc2ccc(Cl)cc2)c1`
Result string: Not met

Query string: Does this compound meet the criterion IC50 < 0.06 µM? `CCOc1ccc(C)cc1-c1nc2nc(C(=O)O)nc(N[C@H](C)C3CCC3)c2n1Cc1ccc(Cl)cc1`
Result string: Met
